System: Escherichia coli ATCC 35218
assay-overview: Antibacterial activity, broth microdilution (MIC/MBC)
Assay type: cell-based
test-parameters: Escherichia coli, ATCC35218; E. coli ATCC 35218; read-out: MBC
measure-name: MBC (µg/mL)
Dear colleague, please return just the value in µg/mL, with no unit written.

Solved cases below.
CC1CCC2(OC3CC4C5CC=C6CC(O)CCC6(C)C5CCC4(C)C3C2C)[S+]([O-])C1 (stereo not drawn) [Sulfoxide 6]: 250
CC1CCC2(OC3CC4C5CC=C6CC(O)CCC6(C)C5CCC4(C)C3C2C)SC1 (stereo not drawn): 125
CC1CCC2(CC1)O[C@H]1C[C@H]3[C@@H]4CC[C@H]5C[C@@H](O)CC[C@]5(C)[C@H]4CC[C@]3(C)[C@H]1[C@@H]2C (stereo partly drawn): 1000
CC1CCC2(OC3CC4C5CC=C6CC(O)CCC6(C)C5CCC4(C)C3C2C)S(=O)(=O)C1C (stereo not drawn): 250
CC1CCC2(OC3CC4C5CC=C6CC(O)CCC6(C)C5CCC4(C)C3C2C)S(=O)(=O)C1 (stereo not drawn): 250

Moving on to another molecule below.
Dear colleague, please send me the reported MBC for "C[C@@H]1CC[C@@]2(OC1)O[C@H]1C[C@H]3[C@@H]4CC=C5C[C@@H](O)CC[C@]5(C)[C@H]4CC[C@]3(C)[C@H]1[C@@H]2C" when you can.
500
